# PROTOCOL_TEXT: CaMKII Cell-Based Activity: CaMKII activity in neonatal rat ventricular myocytes (NRVM) was measured by monitoring the phosphorylation level of phospholamban using high-content imaging. NRVMs were plated in a clear bottom 384-well plate in medium supplemented with 10% fetal bovine serum (FBS) and incubated at 37° C., 5% CO2 overnight. The medium was changed to a serum-free medium and compounds were dosed to the cells. The cells were incubated at 37° C., 5% CO2 for 4 hours and were then treated with 100 nM ATX-II (Alomone Labs) to activate CaMKII. 10 minutes after the addition of ATX-II, the cells were fixed with 4% formaldehyde followed by permeabilization with 0.1% triton X100. The fixed cells were stained with an anti-phospho-phospholamban primary antibody (Santa Cruz Biotechnology) and an Alexa488-labeled anti-rabbit IgG secondary antibody (Life Technologies Corporation) as well as Hoechst 33342 (Life Technologies Corporation). The cells were imaged using an ArrayScan VTI (Cellomics) and analyzed for cells containing a positive fluorescent signal at 485 nm, reported as % responder. The % responders were plotted against the compound concentration to determine the compounds EC50.
PROPERTY_NAME: EC50 (µM)

Record excerpt, results attached:
>>> reported_value("CCNC(C)(C)CNC(=O)c1ccnc(-c2cnn3ccc(-c4ccccc4)nc23)c1")
0.0674
>>> reported_value("O=C(NCC1CCCCN1)c1ccnc(-c2cnn3ccc(-c4cccs4)nc23)c1 (centres undefined)")
0.288
>>> reported_value("NC[C@H]1CCCCN1C(=O)c1cc(-c2cnn3ccc(-c4ccccc4)nc23)nc(C2CC2)c1")
0.0292

[P] CCN(CC)[C@@H](C)CNC(=O)c1cc(NS(=O)(=O)C(C)C)nc(-c2cnn3ccc(-c4cccs4)nc23)c1
[Q] CCN(CC)[C@@H](C)CNC(=O)c1cc(N[C@@H](C)CO)nc(-c2cnn3ccc(-c4cccs4)nc23)c1
[R] C[C@H](N)CNC(=O)c1ccnc(-c2cnn3ccc(-c4cccs4)nc23)c1
[S] CCN(CC)[C@@H](C)CNC(=O)c1cc(Nc2ncc[nH]2)nc(-c2cnn3ccc(-c4cccs4)nc23)c1
[T] CCN[C@@H](C)CNC(=O)c1cc(-c2cnn3ccc(-c4ccccc4)nc23)nc(C(C)C)c1
**Q:** Please give the order of these compounds when sorted by EC50, largest value leading. # answer = labels listed in requested order
**A:** S, P, R, Q, T
